Please respond with reported B-score for every item in the list.
target: D(1A) dopamine receptor (Homo sapiens) (UniProt P21728); experiment: D1 CRE-luciferase signal change, two-sided – cell-based, HEK293 D1, dopamine EC30, D1 allosteric modulator project, primary screen (AID 641); settings: dopamine EC30 potentiation, at 10 µM, actives deviate in either direction
Sequence (P21728 whole entry, looked up): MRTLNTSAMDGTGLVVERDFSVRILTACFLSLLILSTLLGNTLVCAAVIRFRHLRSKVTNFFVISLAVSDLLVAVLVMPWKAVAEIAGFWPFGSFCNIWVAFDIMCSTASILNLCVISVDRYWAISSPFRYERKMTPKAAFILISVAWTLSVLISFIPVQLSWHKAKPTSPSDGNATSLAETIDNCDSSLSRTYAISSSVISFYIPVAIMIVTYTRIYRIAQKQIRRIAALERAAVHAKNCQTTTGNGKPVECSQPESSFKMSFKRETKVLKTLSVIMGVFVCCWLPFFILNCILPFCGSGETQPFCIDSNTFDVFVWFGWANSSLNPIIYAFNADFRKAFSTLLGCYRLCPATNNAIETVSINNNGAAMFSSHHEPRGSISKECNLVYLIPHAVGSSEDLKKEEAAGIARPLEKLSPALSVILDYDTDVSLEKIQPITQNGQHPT
Screen size: about 58,000 compounds; about 3,400 (5.9%) were called active. Shown is part of a subset that was picked to be rich in actives.
Numbers only.

List B-score for every entry below, keeping the order given.
1. C=CCn1cnc2scc(-c3ccccc3)c2c1=O
2. O=C(CCN1C(=O)c2ccccc2C1=O)Nc1ccncc1
3. CC(c1cccnc1)N(CCN(C)C)C(=O)Nc1ccc(Cl)c(Cl)c1 (stereo unspecified)
4. C=CCn1c(SCc2csc(C)n2)nc2scc(-c3ccc(C)o3)c2c1=O
5. COC(=O)Nc1ncc(CN2C(=O)c3ccccc3C2=O)s1

1: 10.5; 2: 0.176; 3: -1.22; 4: -0.492; 5: 3.19

Using the record for `CC(C)NS(=O)(=O)c1ccc(NC(=O)c2cccnc2)cc1` , report its B-score.
1.41
